# ASSAY EXPLANATION: Cytotoxicity against HEK293 cells assessed as cell viability at 50 uM after 24 hrs by Alamar Blue assay relative to control
# Assay type: cell-based
# PARTICULARS: human, read-out: Activity
Binary call on viability at 24 h, 50 µM with cut-off 80%: strictly below means met, and equality or higher means not met.

>>> class_assignment("O=C(NO)c1cccc(N(Cc2ccccc2)Cc2ccccc2)c1")
"met"
>>> class_assignment("CC(C)Oc1ccc(C(=O)NO)cc1NC(=O)c1ccccc1")
"not met"
>>> class_assignment("CCOc1ccc(C(=O)Nc2cc(C(=O)NO)ccc2OC)cc1")
"not met"
>>> class_assignment("CCOc1ccc(C(=O)NO)cc1NC(=O)c1ccccc1")
"met"
>>> class_assignment("O=C(NO)c1ccc2ccccc2n1")
"met"
>>> class_assignment("COc1ccc(C(=O)NO)cc1NC(=O)c1ccccc1Cl")
"not met"
>>> class_assignment("COc1ccc(C(=O)Nc2cc(C(=O)NO)ccc2Cl)cc1")
"met"
>>> class_assignment("COC(=O)c1ccc(OC)c(NC(=O)c2ccc(-c3ccccc3)cc2)c1")
"met"
>>> class_assignment("COc1ccc(C(=O)Nc2cc(C(=O)NO)ccc2OC)cc1")
"met"
>>> class_assignment("Cc1ccc(C(=O)NO)cc1NC1CCCCC1")
"met"
>>> class_assignment("COc1ccc(C(=O)NO)cc1NC(=O)c1cccc(-c2ccccc2)c1")
"met"
>>> class_assignment("O=C(NO)c1ccc(Cl)c(NC(=O)c2cccc(OCc3ccccc3)c2)c1")
"met"
>>> class_assignment("CN(C)c1cccc(C(=O)NO)c1")
"not met"
>>> class_assignment("CCCOc1ccc(C(=O)NO)cc1NC(=O)c1ccccc1")
"not met"
>>> class_assignment("O=C(NO)c1cccc(NC2CCCCC2)c1")
"met"
>>> class_assignment("O=C(NO)c1ccc(Cl)c(NC(=O)c2ccccc2)c1")
"met"
>>> class_assignment("O=C(NO)c1ccc(Br)c(NC(=O)c2ccccc2)c1")
"met"
>>> class_assignment("Cc1ccc(C(=O)NO)cc1NC(=O)c1ccccc1")
"met"
>>> class_assignment("COc1ccc(C(=O)NO)cc1NC(=O)c1ccccc1")
"met"
>>> class_assignment("COc1ccc(C(=O)NO)cc1NC(=O)c1ccc(-c2ccccc2)cc1")
"met"
>>> class_assignment("COc1ccc(C(=O)NO)cc1NC(=O)c1ccc(Cl)cc1Cl")
"not met"
>>> class_assignment("O=C(NO)c1ccc(C(F)(F)F)c(NC(=O)c2ccccc2)c1")
"not met"
>>> class_assignment("COc1ccc(C(=O)NO)cc1NC(=O)Cc1ccccc1")
"not met"
